# experimental-system: Tyrosine-protein kinase Mer (Homo sapiens) (UniProt Q12866)
# Sequence (Q12866 whole entry): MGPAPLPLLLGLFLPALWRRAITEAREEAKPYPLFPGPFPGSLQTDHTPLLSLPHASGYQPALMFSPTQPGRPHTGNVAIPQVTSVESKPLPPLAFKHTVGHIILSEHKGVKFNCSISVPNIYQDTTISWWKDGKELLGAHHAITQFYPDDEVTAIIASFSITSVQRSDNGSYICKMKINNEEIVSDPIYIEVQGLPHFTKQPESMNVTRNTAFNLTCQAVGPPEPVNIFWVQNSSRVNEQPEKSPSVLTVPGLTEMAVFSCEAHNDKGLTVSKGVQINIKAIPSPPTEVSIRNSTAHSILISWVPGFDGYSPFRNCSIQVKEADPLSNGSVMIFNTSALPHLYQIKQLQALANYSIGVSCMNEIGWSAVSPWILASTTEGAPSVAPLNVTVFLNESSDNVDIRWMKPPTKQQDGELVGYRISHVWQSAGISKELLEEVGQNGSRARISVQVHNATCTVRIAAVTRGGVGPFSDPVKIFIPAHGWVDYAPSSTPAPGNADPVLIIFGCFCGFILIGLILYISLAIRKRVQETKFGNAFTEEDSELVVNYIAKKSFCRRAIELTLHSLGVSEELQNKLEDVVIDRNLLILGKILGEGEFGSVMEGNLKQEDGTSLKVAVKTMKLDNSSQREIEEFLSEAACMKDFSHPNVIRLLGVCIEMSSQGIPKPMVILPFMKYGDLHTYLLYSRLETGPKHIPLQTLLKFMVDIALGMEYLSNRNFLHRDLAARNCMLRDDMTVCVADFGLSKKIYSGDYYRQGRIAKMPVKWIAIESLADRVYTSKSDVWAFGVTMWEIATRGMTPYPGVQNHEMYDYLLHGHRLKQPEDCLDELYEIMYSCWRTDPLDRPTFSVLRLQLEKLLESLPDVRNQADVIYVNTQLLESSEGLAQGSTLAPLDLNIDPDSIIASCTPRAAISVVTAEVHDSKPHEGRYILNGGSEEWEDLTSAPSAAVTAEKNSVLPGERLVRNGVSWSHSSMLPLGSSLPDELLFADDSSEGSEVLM
# stated-conditions: at 10 µM
parameter-measured: inhibition (%)

Record excerpt, results attached:
{"columns": ["molecule", "output-unit", "reading"],
 "data": [
  ["Cc1cc(O)cc(C)c1/C=C/c1cncc(-c2nn[nH]n2)c1", "%", -2],
  ["COc1ccc2c(-c3ccnc(Nc4cccc(OC(F)(F)F)c4)n3)cnn2n1", "%", 2],
  ["CCOc1ccc2c(-c3ccnc(Nc4cccc(C(F)(F)F)c4)n3)cnn2n1", "%", -2],
  ["Nc1nccc(-c2c(-c3ccc(F)cc3)ncn2C2CCC(O)CC2)n1 (stereo unspecified)", "%", 29],
  ["Cc1nn(C)c2cc(N(C)c3ccnc(Nc4cccc(S(N)(=O)=O)c4)n3)ccc12", "%", -8]
]}

I = O=C(Nc1n[nH]c2nc(-c3ccco3)c(Br)cc12)C1CC1
II = FC(F)(F)c1cccc(Nc2nccc(-c3cnn4nc(-c5ccccc5)ccc34)n2)c1
III = CS(=O)(=O)CCNCc1ccc(-c2ccc3ncnc(Nc4ccc(OCc5cccc(F)c5)c(C(F)(F)F)c4)c3c2)o1
IV = O=C1Nc2ccc(C(=O)c3ccco3)cc2C1=Cc1cc(Cl)c(O)c(Cl)c1
V = CCCN1CCC(Oc2cc(Nc3nc(Nc4cccc(F)c4C(N)=O)c4cc[nH]c4n3)c(OC)cc2Cl)CC1
input: Arrange by inhibition, high to low. Answer with the labels in sequence, matching the requested order.
output: I, III, IV, II, V
(I: 83%, III: 50%, IV: -1%, II: -2%, V: -6%)

I = O=C1NC(=O)C(c2cccc(Cl)c2)=C1Nc1ccc(O)c(Cl)c1
II = COc1ccc(CNC(=O)c2ccc(-c3cc(-c4nnc(C)o4)ccc3C)cc2)cc1
input: Could you point out whether the larger inhibition belongs to I or to II ? Mark your selection by writing its label.
output: I

I = Nc1nccc(-c2c(-c3ccc(F)cc3)nn3cc(C(F)(F)F)ccc23)n1
II = O=C1NC(=O)C(c2cccc(Cl)c2)=C1Nc1ccc(Cl)c(C(=O)O)c1
III = COc1cc(N2CCN(C(C)C)CC2)ccc1Nc1nc(Nc2ccc(F)cc2C(N)=O)c2cc[nH]c2n1
IV = NC(=O)c1ccc2c(-c3ccnc(NCCCO)n3)c(-c3ccc(F)cc3)nn2c1
V = O=C(NCC1CC1)c1ccc(-c2cccc(C(=O)NC3CC3)c2)cc1
input: Order the items by recorded inhibition; the first position goes to the largest value. List each label, following the requested order.
output: I, II, III, V, IV

P = Cc1cc(-c2ccco2)cc(C)c1/C=C/c1cncc(-c2nn[nH]n2)c1
Q = Clc1ccc(CNc2nccc(-c3cnn4ncccc34)n2)cc1
R = COc1cc(C)c(NC(=O)CN(C)C)cc1Nc1nc(Nc2cccc(F)c2C(N)=O)c2cc[nH]c2n1
input: Ordering: ascending inhibition. As an answer, provide the labels arranged in the order called for.
output: Q, R, P
